Data origin: patent US9902728B2

Molecular target: USP7 (Homo sapiens, UniProt Q93009)
Construct: USP7, construct USP7 (208-1102) 6*His, Viva Biotech; 6xHis (C); purchased Viva Biotech
Sequence (Q93009 208-1102): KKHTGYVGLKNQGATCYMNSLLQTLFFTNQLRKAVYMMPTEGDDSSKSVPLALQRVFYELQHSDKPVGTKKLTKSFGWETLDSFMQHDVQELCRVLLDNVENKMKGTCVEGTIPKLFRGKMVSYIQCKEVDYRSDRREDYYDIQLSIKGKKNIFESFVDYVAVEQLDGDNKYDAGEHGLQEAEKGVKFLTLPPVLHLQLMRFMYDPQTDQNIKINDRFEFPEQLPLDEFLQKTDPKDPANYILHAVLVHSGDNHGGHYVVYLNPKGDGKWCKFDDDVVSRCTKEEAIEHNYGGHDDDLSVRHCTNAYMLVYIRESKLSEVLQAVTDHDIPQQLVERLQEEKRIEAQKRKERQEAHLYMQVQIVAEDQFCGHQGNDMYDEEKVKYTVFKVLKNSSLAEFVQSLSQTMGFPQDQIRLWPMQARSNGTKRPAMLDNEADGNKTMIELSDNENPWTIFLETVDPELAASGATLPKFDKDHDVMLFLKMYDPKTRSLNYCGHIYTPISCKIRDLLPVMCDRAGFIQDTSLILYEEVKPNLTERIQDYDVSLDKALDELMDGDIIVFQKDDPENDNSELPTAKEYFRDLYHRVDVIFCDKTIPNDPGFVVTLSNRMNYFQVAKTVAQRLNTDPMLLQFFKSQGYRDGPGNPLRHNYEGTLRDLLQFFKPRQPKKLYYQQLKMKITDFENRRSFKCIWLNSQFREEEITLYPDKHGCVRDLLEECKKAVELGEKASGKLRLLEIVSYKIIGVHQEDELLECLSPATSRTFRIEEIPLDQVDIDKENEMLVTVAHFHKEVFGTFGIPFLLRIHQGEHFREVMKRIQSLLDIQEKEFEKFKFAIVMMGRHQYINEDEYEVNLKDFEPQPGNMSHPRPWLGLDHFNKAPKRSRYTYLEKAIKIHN
Experiment: USP7 Assay A (Ubitquin-Rhodamine 110 Assay)
Format: biochemical
Conditions: USP7 activity in USP7 assay A and B (table does not say which assay per compound); read-out: USP7_IC50
pIC50: −log10 of the molar value.
Result type: pIC50

These solved cases illustrate the format of a correct answer.
CC(=O)NC1CCC(C(=O)N2CCC(O)(Cn3cnc4c(cnn4-c4ccc(F)cc4)c3=O)CC2)CC1 (centres unmarked) [Compound I-924]: 5.00 to 6.00
Cc1cc(OC2CCC(C(=O)N3CCC(O)(Cn4cnc5c(cnn5-c5ccc(F)cc5)c4=O)CC3)CC2)no1 (centres unmarked) [Compound I-755]: 6.00 to 6.70
NCc1cnn(-c2ccc(C(=O)N3CCC(O)(Cn4cnc5c(cnn5-c5ccc(F)cc5)c4=O)CC3)cc2)c1 [Compound I-613]: 5.00 to 6.00
CC(C)(O)Cn1cc(-c2ccc(-n3ncc4c(=O)n(CC5(O)CCN(C(=O)c6ccc(F)cc6)CC5)cnc43)cc2)cn1 [Compound I-1617]: 6.00 to 6.70
Cc1ncc(C(=O)N2CCC(O)(Cn3cnc4c(cnn4-c4ccc(OC5CCC(F)(F)CC5)cc4)c3=O)CC2)o1 [Compound I-1134]: 6.00 to 6.70

Reported pIC50, compound O=C(C[C@H](C(F)F)n1ccc(F)n1)N1CCC(O)(Cn2cnc3c(ccn3-c3ccc(F)cc3)c2=O)CC1 [Compound I-1125] : ____ 6.00 to 6.70

Check O=C(c1cnc(C2CC2)o1)N1CCC(O)(Cn2cnc3c(ccn3-c3ccc(F)cc3)c2=O)CC1 [Compound I-849] too. > 6.70

Check CC1(C(=O)N2CCC(O)(Cn3cnc4c(cnn4-c4cccc(-n5ccc(F)n5)c4)c3=O)CC2)CC1 [Compound I-1042] too. 6.00 to 6.70
